experiment: Plasma concentration in CD1 mouse at 25 mg/kg, po after 24 hrs; assay type: ADME, organism-based; parameters: dose 25 mg/kg, route oral
result_type: concentration at 24 h (nM)
Kindly answer with a numeric value in nM, unit omitted.

Field request: concentration at 24 h | item: `Nc1nccn2c1c(-c1ccc3ccc(-c4ccccc4)nc3c1)nc2[C@H]1C[C@@H](CN2CCC2)C1`
400

###

Kindly supply the reported IC50 values for the records listed here.
target: Insulin-like growth factor 1 receptor (Homo sapiens, UniProt P08069)
Sequence (P08069 31-736 limits assumed): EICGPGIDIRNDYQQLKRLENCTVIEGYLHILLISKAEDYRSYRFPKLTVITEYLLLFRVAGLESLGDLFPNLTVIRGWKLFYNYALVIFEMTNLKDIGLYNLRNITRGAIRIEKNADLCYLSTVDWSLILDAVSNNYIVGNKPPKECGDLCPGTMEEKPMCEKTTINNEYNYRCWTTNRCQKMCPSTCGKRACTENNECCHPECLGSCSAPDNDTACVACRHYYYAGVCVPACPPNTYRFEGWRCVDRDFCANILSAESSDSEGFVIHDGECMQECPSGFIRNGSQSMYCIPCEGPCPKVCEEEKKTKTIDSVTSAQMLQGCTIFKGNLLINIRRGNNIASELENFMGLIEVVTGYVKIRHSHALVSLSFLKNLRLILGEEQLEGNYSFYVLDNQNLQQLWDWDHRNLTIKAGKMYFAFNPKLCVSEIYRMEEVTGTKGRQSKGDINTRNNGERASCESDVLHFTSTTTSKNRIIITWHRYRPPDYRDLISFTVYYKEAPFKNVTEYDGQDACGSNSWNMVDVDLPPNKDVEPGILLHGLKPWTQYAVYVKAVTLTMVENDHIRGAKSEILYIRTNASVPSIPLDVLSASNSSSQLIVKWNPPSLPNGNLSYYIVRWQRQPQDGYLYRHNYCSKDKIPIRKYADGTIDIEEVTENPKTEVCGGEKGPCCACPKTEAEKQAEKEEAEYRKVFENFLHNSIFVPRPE
Sequence (P08069 741-1367 limits assumed): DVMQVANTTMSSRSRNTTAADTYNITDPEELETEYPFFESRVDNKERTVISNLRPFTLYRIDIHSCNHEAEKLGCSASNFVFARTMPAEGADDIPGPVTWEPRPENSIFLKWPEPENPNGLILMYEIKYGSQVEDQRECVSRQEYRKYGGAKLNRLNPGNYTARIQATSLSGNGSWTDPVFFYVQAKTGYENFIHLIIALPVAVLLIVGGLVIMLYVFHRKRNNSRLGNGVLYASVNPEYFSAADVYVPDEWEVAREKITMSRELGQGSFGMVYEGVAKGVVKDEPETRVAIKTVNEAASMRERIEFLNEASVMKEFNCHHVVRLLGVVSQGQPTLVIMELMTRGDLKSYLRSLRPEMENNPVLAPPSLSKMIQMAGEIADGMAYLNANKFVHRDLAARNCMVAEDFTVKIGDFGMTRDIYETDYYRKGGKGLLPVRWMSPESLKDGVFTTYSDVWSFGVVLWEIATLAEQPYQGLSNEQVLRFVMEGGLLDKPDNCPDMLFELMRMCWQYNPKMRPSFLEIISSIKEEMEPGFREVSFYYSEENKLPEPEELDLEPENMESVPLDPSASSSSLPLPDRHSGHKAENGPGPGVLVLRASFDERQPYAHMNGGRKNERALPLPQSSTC
The reply should be a number in nM, with the unit left off.

Look up IC50 for this compound: `Nc1nccn2c1c(-c1ccc3ccc(-c4ccccc4)nc3c1)nc2[C@H]1C[C@H](CN2CCC2)C1`
42

Proceed to `Nc1nccn2c1c(-c1ccc3ccc(-c4ccccc4)nc3c1)nc2[C@H]1C[C@@H](CN2CCC2)C1`
20

Source of measurements: ChEMBL document CHEMBL1143953
